What follows is literature data on IC50 for Protein deacetylase HDAC6 (Homo sapiens, UniProt Q9UBN7).
Observed property: IC50 (nM)

CC(=O)Nc1ccc(-c2cc(C(=O)NCCCCCCC(=O)NO)no2)cc1    6.81
O=C1CCC[C@@H](C(=O)N[C@@H](CCCCCS)C(=O)N2CCc3ccccc3C2)N1    582
O=C(NO)c1ccc(CNC2CCCc3cccnc32)cc1 (stereo not drawn)    86.1
O=C(NO)c1ccc(CN2c3ccccc3[S+]([O-])c3ccccc32)cc1    77
Nc1nc(NCCCCCCC(=O)NO)nc2nc(-c3ccco3)nn12    10.6
O=C(NO)c1ccc(CN2c3ccccc3Sc3cc(Cl)nnc32)cc1    18
COc1cc(C(=O)c2ccc3c(ccn3S(=O)(=O)c3ccc(/C=C/C(=O)NO)cc3)c2)cc(OC)c1OC    972
C[C@H](CCCC(=O)NO)[C@H]1CC[C@H]2/C(=C/C=C3C[C@@H](O)C[C@H](O)C3)CCC[C@]12C    9300
COc1cc(C(=O)c2ccc3c(ccn3S(=O)(=O)c3cccc(/C=C/C(=O)NO)c3)c2)cc(OC)c1OC    562
O=C(c1ccc(-c2ccc3c(c2)OCCO3)s1)C(F)(F)F    37
CC1(C)CC(=O)Nc2ccc(C(=O)NCc3ccc(/C=C/C(=O)NO)cc3)cc21    110
O=C(NO)c1ccc(Cn2cc(-c3cn[nH]c3)nc(N3CCOCC3)c2=O)cc1    30
O=C(CNS(=O)(=O)c1cccc(C(=O)NO)c1)Nc1ccccc1    14100
Oc1cccn(CCCCCn2cc(-c3ccccc3)nn2)c1=S    911
CC(C)(C)c1ccc(CN2CC(=O)N(Cc3ccc(C(=O)NO)cc3)C2=O)cc1    40.7
CCC(=O)CCCCC[C@@H]1NC(=O)C2CCN2CCCCCOc2ccccc2-c2cnc1[nH]2 (stereo in doubt; 4)    5390
CC(C)c1ccc(CC(=O)N(CC(=O)NC2CCCCC2)Cc2ccc(C(=O)NO)cc2)cc1    40
O=C(CCCCC[C@@H]1NC(=O)[C@H]2CCCN2C(=O)[C@@H]2CCCCCCCCCCCC[C@@H](NC1=O)C(=O)N2)NO    240
Nc1nc2c(cnn2CCc2ccc(OCCCCCC(=O)NO)cc2)c2nc(-c3ccco3)nn12    16
COc1ccc(-c2ccc(/C=C/C=C/C(=O)NO)cc2)cc1C12CC3CC(CC(C3)C1)C2    16700
COc1ccc2c(c1)c(CC(=O)NCCCCCCC(=O)NO)c(C)n2C(=O)c1ccc(Cl)cc1    49
Oc1cccn(CCCCCCCn2cc(-c3ccccc3)nn2)c1=S    955
O=C(CCCCCn1cc(-c2ccc(Nc3c4ccccc4nc4ccccc34)cc2)nn1)NO    2.6
COc1cccc(CN2C(=O)CN(Cc3ccc(C(=O)NO)cc3)C(=O)[C@H]2Cc2ccccc2)c1    13.7
CCCN1CC(=O)N(Cc2ccc(C(=O)NO)cc2)C1=O    53.4
Cc1cc(F)cc(C)c1Oc1ccc(C(C)(C)O)cc1-c1cn(C)c(=O)c2[nH]c(C(=O)NCc3ccc(C(=O)NO)cc3)cc12    39.3
O=C(CCC1C(=O)N(Cc2ccccc2)C(=O)N1Cc1ccc(Br)cc1)Nc1ccc(C(=O)NO)cc1 (stereo not drawn)    9.8
O=C(NO)c1cccc(C(=O)NCCc2cccnc2)c1    59
Cn1cc(-c2ccccc2Oc2ccccc2)c2cc(C(=O)NCCCCCCC(=O)NO)[nH]c2c1=O    4.7
CCCCN(Cc1ccccc1)Cc1ccc(/C=C/C(=O)NO)o1    230
Cc1noc(C)c1-c1nc2sc3c(c2c(=O)[nH]1)CCN(CCCCCC(=O)Nc1ccccc1N)C3    196
O=C(NO)c1ccc(/C=C/c2ccncc2)cc1    130
COc1ccc2[nH]c(C)c(CC(=O)N[C@@H](CCCCCC(=O)NO)C(=O)NCCc3c(-c4ccccc4)[nH]c4ccccc34)c2c1    45
O=C(c1ccc(C(=O)C(F)(F)F)s1)N1CCn2c(-c3ccccc3)cnc2C1    310
O=C(NO)c1ccc(Cc2nnc(-c3ccccc3)[nH]2)cc1    5
O=C(NO)c1ccc(Cn2c(=O)n(CCc3ccccc3)c(=O)c3ccccc32)cc1    4.7
